So I've got a bunch of compounds here, and I need their cytotoxicity at 70.5 h values.
# Protocol text: Human HepG2 cell viability assay in 384 well format
# Assay type: toxicity, cell-based
# Design: dose 125 nL, time 70.5 hour; concentration not given beside the values
# Settings: HepG2 cells, read-out: Inhibition
# output: numeric value plus its unit

query: Entry CC1=NC2(CCN(CC(C)c3ccccc3)CC2)C(=O)N1 (configuration not stated) needs its cytotoxicity at 70.5 h filled in; supply it.
result: -8.98%

query: Answer with reported cytotoxicity at 70.5 h of `Cc1cc(C(F)F)nn1CC(=O)NCc1nccn1C`
result: -3.8%

query: Please indicate cytotoxicity at 70.5 h recorded for `Cc1sc(CN)nc1-c1ccc(Cl)cc1Cl`
result: 5.42%

query: Write down cytotoxicity at 70.5 h measured for item `CN(C)C(=O)Cc1ccc(NC(=O)NC2CC2)cc1`
result: -3.59%

query: Please look at this compound and report its cytotoxicity at 70.5 h: `Cc1csc(N2CCN(C(=O)CCc3nccs3)CC2)n1`
result: -2.43%

query: // Input: Cc1cnn(CCNCC(=O)NC(C)c2ccc3c(c2)OCCO3)c1 (configuration not stated) . Output its cytotoxicity at 70.5 h only.
result: -3.11%

query: Look up and state reported cytotoxicity at 70.5 h for `Cc1ccsc1CN(CCCN(C)C)Cc1ccccn1`
result: -3.09%

query: For CCCNC(=O)c1ccc(NC(=O)NC(C)c2ccccn2)cc1 (configuration not stated) , write its cytotoxicity at 70.5 h.
result: -8.01%

query: Input `COc1cc(CNc2cc(-c3ccoc3C)nn2CCO)ccc1F` , output reported cytotoxicity at 70.5 h.
result: 11.9%

query: Give a short answer stating reported cytotoxicity at 70.5 h for `CCC(=O)Nc1cccc(OCC(=O)N(C)Cc2cc(COC)[nH]n2)c1` .
result: -4.96%

query: Given the compound Cc1cnn(C(C)C2CC2)c1NC(=O)c1ccc(Cn2cnnn2)cc1 (configuration not stated) , write its reported cytotoxicity at 70.5 h.
result: -10.2%

query: Read the entry O=C(CS(=O)(=O)c1ccccn1)NC1CCCc2ccccc21 (configuration not stated) and write its reported cytotoxicity at 70.5 h.
result: 1%

----------
Please respond with reported cytotoxicity at 70.5 h for every item in the list.
# Protocol text: Human HepG2 cell viability assay in 384 well format
# Assay type: toxicity, cell-based
# Parameters: dose 125 nL, time 70.5 hour; concentration not given beside the values
# Settings: HepG2 cells, read-out: Inhibition

query: Hello, please tell me recorded cytotoxicity at 70.5 h for this one: `Cc1ccc2c(c1)[C@@H](CC(=O)N(C)C)CCO2`
result: -2.63%

query: Give the reported value of cytotoxicity at 70.5 h for this record: Cc1ccccc1C(NC(=O)NCC1(CO)CC1)C1CC1 (stereo unspecified)
result: -1.18%

query: Give a short answer stating reported cytotoxicity at 70.5 h for Cc1csc(CNC(=O)NC(C)c2ccc3c(c2)CCC(=O)N3)n1 (stereo unspecified) .
result: -5.74%

query: For Cc1cc2cccc(NC(=O)N3CCC(N(C)C)C3)c2o1 (stereo unspecified) , write its cytotoxicity at 70.5 h.
result: -8.17%

query: Provide measured cytotoxicity at 70.5 h value, entry: CCc1ccc(-c2nn3c(nc2=O)-c2ccccc2NC3C(=O)O)cc1 (stereo unspecified)
result: -10.4%

query: Kindly indicate its recorded cytotoxicity at 70.5 h. Item: `Cn1cncc1-c1nnc([C@H]2CCN(CC(C)(C)C)C2)o1`
result: 14%

----------
Give measured cytotoxicity at 70.5 h for each item. Keep answers brief.
# Protocol text: Human HepG2 cell viability assay in 384 well format
# Type: toxicity, cell-based
# Parameters: dose 125 nL, time 70.5 hour; concentration not given beside the values
# Settings: HepG2 cells, read-out: Inhibition
Provide only the numeric value, understood in %.

query: Identify measured cytotoxicity at 70.5 h associated with `Cc1cc2ccccc2n1CCC(=O)NCCCc1nnc(N)s1`
result: 33.9

query: Let me know recorded cytotoxicity at 70.5 h for Cc1cc(CN2CCC(CNC(=O)c3ccc(O)c(Cl)c3)C2)[nH]n1 (stereo not given) , thanks.
result: -4.96

query: # return recorded cytotoxicity at 70.5 h for input `CC(C)(C)OC(=O)N1CCCN(c2nnc(C3CC3)s2)CC1`
result: -0.941

query: Using the record for Cc1ccc(C(O)CNCc2c(C(C)C)nn(C)c2N(C)C)cc1 (stereo not given) , state its measured cytotoxicity at 70.5 h.
result: 0.581

query: Determine its reported cytotoxicity at 70.5 h: `O=C(NCc1cnc2n1CCN(CC1CCOCC1)C2)c1ccno1`
result: 31.3

query: Quick one: give measured cytotoxicity at 70.5 h for `CCc1nnc2n1CCN(C(=O)c1ccc3c(c1)[nH]c(=O)n3C)C2`
result: -2.36

query: Look up and state reported cytotoxicity at 70.5 h for `O=C(c1ccncc1)N1CC[C@@H]2CN(C3CCOCC3)CCO[C@@H]2C1`
result: -9.58

query: Please supply the value of reported cytotoxicity at 70.5 h for the item `CC(=O)N1CCC2(CCN(S(=O)(=O)c3ccccc3)CC2)C1`
result: 22.3

query: Consider the compound CC(CO)(NC(=O)Nc1nnc(C(F)F)s1)C1CC1 (stereo not given) and give its recorded cytotoxicity at 70.5 h.
result: 4

query: Specify cytotoxicity at 70.5 h for `Cc1ncc2c(n1)CN(CC(=O)Nc1cccnc1)CC2` and stop.
result: 17.5

query: Return the recorded cytotoxicity at 70.5 h value; entry: Clc1cccc(-c2nc(CNC3CCc4ncnn4C3)co2)c1 (stereo not given)
result: 11.6

query: Return value of cytotoxicity at 70.5 h for input `O=C(c1ccn(-c2cccc(Cl)c2)n1)N1CCN(C2CC2)CC1` , no commentary.
result: -0.559

query: Return cytotoxicity at 70.5 h (reported value) for this compound: `Cc1ccc(N2CC[C@]3(O)CCN(CCN4CCCC4=O)C[C@@H]3C2)nn1`
result: 0.21

query: Look up and report measured cytotoxicity at 70.5 h for this entry: O=C(NCCN1CCCCC1)C(c1ccccc1)N1CCCC1 (stereo not given)
result: 2.81

query: Tell me cytotoxicity at 70.5 h reported for `CCCN(C(=O)c1cnccn1)c1nc2c(s1)CCc1c-2cnn1C`
result: 7.37

query: Supply measured cytotoxicity at 70.5 h of `CCCN(CCC)C(=O)c1sc(C)nc1C` in your reply.
result: -7.05

query: Report cytotoxicity at 70.5 h for CCC(CC)(CNC(C)=O)NC(C)c1ccccc1 (stereo not given)
result: 3

query: Tell me cytotoxicity at 70.5 h reported for `CN(Cc1ccccc1NCc1ncc[nH]1)C(=O)c1cccs1`
result: 14

query: State its cytotoxicity at 70.5 h: CC(Cn1cccn1)NCc1nc(-c2ccco2)no1 (stereo not given)
result: -16.5

query: Please indicate cytotoxicity at 70.5 h recorded for `Cn1ccc(C(=O)NCc2ccc(CN3CCCC3)cc2)cc1=O`
result: -12.4

query: Specify cytotoxicity at 70.5 h for CCC(C)NC(=O)c1ccn(COc2ccccc2Cl)n1 (stereo not given) and stop.
result: -1.06

query: // fetch cytotoxicity at 70.5 h given entry `Cc1ccccc1CC(=O)N1CCCn2cncc2C1`
result: -9.13

query: Respond only with cytotoxicity at 70.5 h recorded for CN(C)CCN1C(=O)CCCC12CCCN(Cc1ccc[nH]1)C2 (stereo not given)
result: 26

query: Input `COc1ccc(C)cc1NC(=O)c1coc(C)n1` , output reported cytotoxicity at 70.5 h.
result: -5.37

query: Find the measured cytotoxicity at 70.5 h of Cc1cc2ccccc2n1CCC(=O)N1CCCCC1CCO (stereo not given) and report it.
result: -6.95

----------
# Protocol text: Human HepG2 cell viability assay in 384 well format
# Format: toxicity, cell-based
# Set-up: dose 125 nL, time 70.5 hour; concentration not given beside the values
# Settings: HepG2 cells, read-out: Inhibition
What cytotoxicity at 70.5 h was measured for each of the following?
Please reply with the bare figure in % and do not write the unit itself.

query: Complete the entry with cytotoxicity at 70.5 h for `O=C(Nc1cccnc1)[C@H]1CN(C2CCCC2)C[C@H]2OCC[C@@H]12`
result: -2.64

query: // fetch cytotoxicity at 70.5 h given entry `CCc1nc(-c2cccc(C(=O)O)c2)no1`
result: 16.3

query: Give reported cytotoxicity at 70.5 h value for `COc1cccc2c1CCN(C(=O)NCc1nnc3ccccn13)C2`
result: 0.687

query: Tell us which cytotoxicity at 70.5 h value is on record for `Cc1noc(C)c1CN(C)Cc1csc(-c2ncccn2)n1`
result: -3.82

query: Read the entry `Cn1cc(C(=O)NCc2ccc(OC3CCCCC3)nc2)ccc1=O` and write its reported cytotoxicity at 70.5 h.
result: -7.34

query: // Input: Cc1ccc(CC2CCCN2CC(=O)NCc2cccnc2)cc1 (configuration not stated) . Output its cytotoxicity at 70.5 h only.
result: -15.4

query: Return the recorded cytotoxicity at 70.5 h value; entry: `O=c1[nH]ncc(NCCOc2ccc3c(c2)OCO3)c1Cl`
result: -8.71

query: Recall and state the measured cytotoxicity at 70.5 h for `CC(=O)Nc1ccn(Cc2ccccc2)n1` .
result: -12.2

query: Please give the documented cytotoxicity at 70.5 h of `COc1ccc(OCc2nc(C(=O)N3CC[C@H](O)[C@@H](O)C3)co2)cc1`
result: -8.88

query: Return value of cytotoxicity at 70.5 h for input CC(CN1CCCC1=O)NC(=O)c1cc(-c2cccc(Cl)c2)no1 (configuration not stated) , no commentary.
result: -18.5

query: Read off the recorded cytotoxicity at 70.5 h for Cc1nc(C(C)NC(=O)COc2ccc(F)cc2)n[nH]1 (configuration not stated)
result: -7.22

query: Answer with the recorded cytotoxicity at 70.5 h of Cc1noc(C)c1CN(C)C(=O)NC1CCC(O)CC1 (configuration not stated) only.
result: -8.86
